target: human M4 receptor (Homo sapiens, UniProt P08173); construct: expressed in transfected cells; host or cells: CHO cells; assay: Radioligand ([3H]N-methylscopolamine) binding assay, membranes from CHO cells expressing human M4 receptor; details: Ki against human M4 receptor; membranes from CHO cells; tritiated N-methylscopolamine 1.5 nM; read-out: K
pKi: −log10 of the molar value.
Attribute: pKi
Measurement Name: pKi

- [2H]c1c([2H])c([2H])c(CN2CC3(CC(NC(=O)N4[C@H](C)CN(c5ncc(C(F)(F)F)cn5)C[C@@H]4C)C3)C2)c([2H])c1[2H]: > 8.00
- C[C@@H]1CN(c2ncc(C(F)F)cn2)C[C@H](C)N1C(=O)OC1CC2(C1)CN(Cc1ccccc1)C2: 7.00 to 8.00
- C[C@@H]1CN(c2cnc(C(F)(F)F)cn2)C[C@@H](C)N1C(=O)OC1CC2(C1)CN(Cc1ccccc1)C2: 7.00 to 8.00
- C[C@@H]1CN(c2nc3ccc(C(F)(F)F)cc3s2)CCN1C(=O)NC1CC2(C1)CN(Cc1ccccc1)C2: > 8.00
- C[C@@H]1CN(c2ncc(C(F)(F)F)cn2)C[C@H](C)N1C(=O)OC1CC2(C1)CN(CC1CC1(C)C)C2 (stereo partly shown): > 8.00
- C[C@@H]1CN(c2cnc(OC(F)(F)F)cn2)[C@H](C)CN1C(=O)OC1CC2(C1)CN(Cc1ccccc1)C2: 7.00 to 8.00
- [2H]c1c([2H])c([2H])c(C([2H])([2H])N2CC3(CC(NC(=O)N4[C@H](C)CN(c5ncc(C(F)(F)F)cn5)C[C@@H]4C)C3)C2)c([2H])c1[2H]: > 8.00
- C[C@@H]1CN(c2cnc3cc(C(F)(F)F)ccc3n2)[C@@H](C)CN1C(=O)NC1CC2(C1)CN(Cc1ccccc1)C2: > 8.00
- C[C@@H]1CN(c2ncc(OC(F)F)cn2)C[C@H](C)N1C(=O)OC1CC2(C1)CN(Cc1ccc(F)cc1)C2: > 8.00
- C[C@@H]1CN(c2cnc3ccccc3n2)C[C@H](C)N1C(=O)OC1CC2(C1)CN(Cc1ccc(F)cc1)C2: 7.00 to 8.00
- C[C@@H]1CN(c2ncc3ccccc3n2)C[C@H](C)N1C(=O)OC1CC2(C1)CN(Cc1ccc(F)cc1)C2: > 8.00
- C[C@H]1CN(C(=O)NC2CC3(C2)CN(Cc2ccccc2)C3)CCN1c1ncc(C(F)(F)F)cn1: 7.00 to 8.00
- C[C@@H]1CN(c2cnc3ccccc3n2)C[C@H](C)N1C(=O)OC1CC2(C1)CN(Cc1ccccc1)C2: 7.00 to 8.00

====

Attribute: pKi
target: human M4 receptor (Homo sapiens, UniProt P08173); construct: expressed in transfected cells; host or cells: CHO cells; assay: Radioligand ([3H]N-methylscopolamine) binding assay, membranes from CHO cells expressing human M4 receptor; details: Ki against human M4 receptor; membranes from CHO cells; tritiated N-methylscopolamine 1.5 nM; read-out: K
pKi: −log10 of the molar value.
Measurement Name: pKi

- C[C@@H]1CN(c2ncc(OC(F)F)cn2)C[C@H](C)N1C(=O)OC1CC2(C1)CN(Cc1ccccc1)C2 [Compound 462]: > 8.00
- C[C@@H]1CN(c2ncc(C(F)(F)F)cn2)C[C@H](C)N1C(=O)NC1CC2(C1)CN(CC1CC(F)(F)C1)C2 [Compound 333]: 6.00 to 7.00
- [2H]c1c([2H])c([2H])c(C([2H])([2H])N2CC3(CC(OC(=O)N4[C@H](C)CN(c5cnc(C(F)(F)F)cn5)C[C@@H]4C)C3)C2)c([2H])c1[2H] [Compound 388]: 7.00 to 8.00
- C[C@@H]1CN(c2nc3cc(F)ccc3o2)[C@@H](C)CN1C(=O)OC1CC2(C1)CN(Cc1ccccc1)C2 [Compound 443]: 7.00 to 8.00
- C[C@@H]1CN(c2nc3ccc(F)cc3s2)C[C@H](C)N1C(=O)OC1CC2(C1)CN(Cc1ccccc1)C2 [Compound 368]: > 8.00
- C[C@@H]1CN(c2nc3ccc(C(F)(F)F)cc3o2)[C@@H](C)CN1C(=O)OC1CC2(C1)CN(Cc1ccccc1)C2 [Compound 430]: > 8.00
- C[C@@H]1CN(c2ncc(C(F)(F)F)cn2)C[C@H](C)N1C(=O)NC1CC2(C1)CN(Cc1ccc(Cl)cc1)C2 [Compound 325]: > 8.00
- CNC(=O)c1cnc(N2C[C@@H](C)N(C(=O)OC3CC4(C3)CN(Cc3ccccc3)C4)[C@@H](C)C2)nc1 [Compound 471]: 6.00 to 7.00
- C[C@@H]1CN(c2ccc(C(F)(F)F)cc2)C[C@H](C)N1C(=O)NC1CC2(C1)CN(Cc1ccccc1)C2 [Compound 47]: > 8.00
- C[C@@H]1CN(c2nc3ccc(F)cc3s2)C[C@@H](C)N1C(=O)OC1CC2(C1)CN(Cc1ccc(C(N)=O)cc1)C2 [Compound 402]: 7.00 to 8.00
- C[C@@H]1CN(c2ncc(C(F)(F)F)cn2)[C@H](C)CN1C(=O)OC1CC2(C1)CN(Cc1ccccc1)C2 [Compound 135]: 7.00 to 8.00
- C[C@@H]1CN(c2cnc3cc(F)ccc3n2)[C@@H](C)CN1C(=O)OC1CC2(C1)CN(Cc1ccccc1)C2 [Compound 363]: 7.00 to 8.00
- Cc1nc(N2C[C@@H](C)N(C(=O)OC3CC4(C3)CN(Cc3ccccc3)C4)[C@@H](C)C2)ncc1Cl [Compound 279]: 7.00 to 8.00
- C[C@@H]1CN(c2ncc(C(F)(F)F)cn2)C[C@H](C)N1C(=O)NC1CC2(C1)CN(Cc1ccncc1)C2 [Compound 317]: 6.00 to 7.00
- C[C@@H]1CN(c2nc3ccccc3s2)[C@@H](C)CN1C(=O)NC1CC2(C1)CN(Cc1ccccc1)C2 [Compound 244]: > 8.00
- C[C@@H]1CN(c2nc3cc(C(F)(F)F)cnc3s2)[C@@H](C)CN1C(=O)OC1CC2(C1)CN(Cc1ccccc1)C2 [Compound 367]: > 8.00
- O=C(OC1CC2(C1)CN(Cc1ccccc1)C2)N1C2CC1CN(c1cnc(C(F)(F)F)cn1)C2 [Compound 110]: 6.00 to 7.00
- C[C@@H]1CN(c2cnc(C(F)(F)F)cn2)[C@@H](C)CN1C(=O)OC1CC2(C1)CN(Cc1ccc(S(C)(=O)=O)cc1)C2 [Compound 503]: 6.00 to 7.00
- C[C@@H]1CN(c2ncc(OCC3CCC3)cn2)C[C@H](C)N1C(=O)OC1CC2(C1)CN(Cc1ccccc1)C2 [Compound 530]: > 8.00
- C[C@@H]1CN(c2ncc(C(F)(F)F)c(N)n2)C[C@H](C)N1C(=O)OC1CC2(C1)CN(Cc1ccc(F)cc1)C2 [Compound 466]: > 8.00
- C[C@@H]1CN(c2ncc(C(F)(F)F)cn2)C[C@H](C)N1C(=O)OC1(C)CC2(CN(Cc3ccccc3)C2)C1 [Compound 352]: 6.00 to 7.00
- C[C@@H]1CN(c2cnc(C(F)(F)F)cn2)C[C@H](C)N1C(=O)NCC1CC2(C1)CN(Cc1ccccc1)C2 [Compound 67]: 6.00 to 7.00
- C[C@@H]1CN(c2nc3ncc(C(F)(F)F)cc3s2)C[C@H](C)N1C(=O)OC1CC2(C1)CN(Cc1ccccc1)C2 [Compound 431]: 7.00 to 8.00
- COc1ccc2nc(N3C[C@@H](C)N(C(=O)NC4CC5(C4)CN(Cc4ccccc4)C5)[C@@H](C)C3)cnc2c1 [Compound 215]: 7.00 to 8.00
- C[C@@H]1CN(c2ncc(C(F)(F)F)cn2)C[C@H](C)N1C(=O)NC1CC2(C1)CN(Cc1ccc[nH]1)C2 [Compound 309]: 7.00 to 8.00
- C[C@@H]1CN(c2cnc(OC(F)(F)F)cn2)C[C@H](C)N1C(=O)OC1CC2(C1)CN(Cc1ccccc1)C2 [Compound 202]: > 8.00
- C[C@@H]1CN(c2cnc(C(F)(F)F)cn2)C[C@H](C)N1C(=O)OC1(C(F)F)CC2(CN(Cc3ccccc3)C2)C1 [Compound 342]: 6.00 to 7.00

====

Molecular target: human M4 receptor (Homo sapiens)
Construct: expressed in transfected cells; host or cells: CHO cells
Sequence (P08173 1-479): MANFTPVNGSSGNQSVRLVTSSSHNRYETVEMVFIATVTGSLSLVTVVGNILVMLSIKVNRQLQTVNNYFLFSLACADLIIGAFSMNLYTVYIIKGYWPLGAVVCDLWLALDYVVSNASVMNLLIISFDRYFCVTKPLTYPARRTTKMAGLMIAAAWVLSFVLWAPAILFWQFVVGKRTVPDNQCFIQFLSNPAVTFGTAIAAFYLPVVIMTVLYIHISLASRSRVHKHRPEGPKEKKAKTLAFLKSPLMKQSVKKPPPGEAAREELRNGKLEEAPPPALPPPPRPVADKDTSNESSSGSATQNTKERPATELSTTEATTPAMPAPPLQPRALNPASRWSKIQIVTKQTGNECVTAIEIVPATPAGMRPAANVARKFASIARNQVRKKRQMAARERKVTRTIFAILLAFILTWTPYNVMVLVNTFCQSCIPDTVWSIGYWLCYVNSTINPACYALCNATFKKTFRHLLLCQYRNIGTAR
Test: Radioligand ([3H]N-methylscopolamine) binding assay, membranes from CHO cells expressing human M4 receptor
Conditions: Ki against human M4 receptor; membranes from CHO cells; tritiated N-methylscopolamine 1.5 nM; read-out: K
pKi: −log10 of the molar value.
Measurement Name: pKi

* O=C(OC1CC2(C1)CN(Cc1ccccc1)C2)N1CCN(c2ccc(OC(F)(F)F)cc2)CC1 [Compound 108] | 6.00 to 7.00
* C[C@@H]1CN(c2ncc(C(F)(F)F)cn2)C[C@H](C)N1C(=O)NCC1CC2(C1)CN(Cc1ccccc1)C2 [Compound 97] | 7.00 to 8.00
* C[C@@H]1CN(c2ncc(C(F)(F)F)cn2)C[C@@H](C)N1C(=O)NC1CC2(C1)CN(Cc1ccc(F)cc1)C2 [Compound 328] | 7.00 to 8.00
* C[C@@H]1CN(c2cnc(C(F)(F)F)cn2)CCN1C(=O)OC1CC2(C1)CN(Cc1ccc(F)cc1)C2 [Compound 458] | 7.00 to 8.00
* COc1ccc2nc(N3C[C@@H](C)N(C(=O)NC4CC5(C4)CN(Cc4ccccc4)C5)[C@H](C)C3)sc2c1 [Compound 242] | > 8.00
* C[C@@H]1CN(c2nc3ccc(F)cc3s2)[C@@H](C)CN1C(=O)OC1CC2(C1)CN(Cc1ccccc1)C2 [Compound 370] | > 8.00
* C[C@@H]1CN(c2nc3ccc(F)cc3o2)[C@@H](C)CN1C(=O)OC1CC2(C1)CN(Cc1ccccc1)C2 [Compound 446] | 7.00 to 8.00
* C[C@@H]1CN(c2ncc(C(F)(F)F)cn2)CCN1C(=O)NC1CC2(C1)CN(Cc1ccccc1)C2 [Compound 7] | 7.00 to 8.00
* C[C@@H]1CN(c2ncc(C(F)(F)F)cc2F)C[C@H](C)N1C(=O)OC1CC2(C1)CN(Cc1ccccc1)C2 [Compound 277] | > 8.00
* C[C@@H]1CN(c2ncc(F)cn2)C[C@@H](C)N1C(=O)OC1CC2(C1)CN(Cc1ccccc1)C2 [Compound 158] | 6.00 to 7.00
* C[C@@H]1CN(c2ncc(C(F)(F)F)cn2)[C@@H](C)CN1C(=O)OC1CC2(C1)CN(Cc1ccc(Cl)cc1)C2 [Compound 482] | > 8.00
* C[C@@H]1CN(c2cnc3cc(F)ccc3n2)[C@@H](C)CN1C(=O)OC1CC2(C1)CN(Cc1ccc(F)cc1)C2 [Compound 397] | 7.00 to 8.00
* CSc1nc(N2C[C@@H](C)N(C(=O)OC3CC4(C3)CN(Cc3ccccc3)C4)[C@@H](C)C2)ncc1Br [Compound 169] | 7.00 to 8.00
* Cc1cc(N2C[C@@H](C)N(C(=O)OC3CC4(C3)CN(Cc3ccccc3)C4)[C@@H](C)C2)ccc1F [Compound 525] | 7.00 to 8.00
* C[C@@H]1CN(c2ncc(C(F)(F)F)cn2)[C@@H](C)CN1C(=O)OC1CC2(C1)CN(Cc1ccc(S(C)(=O)=O)cc1)C2 [Compound 501] | 6.00 to 7.00
* C[C@H]1CN(C(=O)OC2CC3(C2)CN(Cc2ccccc2)C3)CCN1c1ncc(C#N)cn1 [Compound 119] | 6.00 to 7.00
* C[C@@H]1CN(c2nc3ccc(C(F)(F)F)cc3s2)C[C@H](C)N1C(=O)OC1CC2(C1)CN(Cc1ccccc1)C2 [Compound 364] | > 8.00
